B1: glmS ribozyme (parent)
chain: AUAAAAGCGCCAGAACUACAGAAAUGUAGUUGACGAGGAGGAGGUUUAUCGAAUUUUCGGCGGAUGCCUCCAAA

Variants of: B1
ASSAY_NAME: self-cleavage kobs at 2500 uM GlcN6P; higher = faster cleavage; RNA array
STUDY_CONDITIONS: with glucosamine-6-phosphate
Fewer inactive variants are shown than the library holds.
# cutoff 0.0008 s⁻¹ applies to self-cleavage kobs at 2500 uM GlcN6P; >= gives TRUE, < gives FALSE

{"VARIANT_ANNOTATION": "G43U C68G", "CAT": "TRUE"}
{"VARIANT_ANNOTATION": "C10A A12U U31G U46C", "CAT": "FALSE"}
{"VARIANT_ANNOTATION": "G40U C61U U65A", "CAT": "FALSE"}
{"VARIANT_ANNOTATION": "G38A G40A", "CAT": "FALSE"}
{"VARIANT_ANNOTATION": "G29A G38U G40A A42C", "CAT": "FALSE"}
{"VARIANT_ANNOTATION": "A15G G43U A48C", "CAT": "FALSE"}
{"VARIANT_ANNOTATION": "C34A G51C U54G", "CAT": "FALSE"}
{"VARIANT_ANNOTATION": "C16U A64U", "CAT": "FALSE"}
{"VARIANT_ANNOTATION": "A53C C71A", "CAT": "FALSE"}
{"VARIANT_ANNOTATION": "G26A U30C", "CAT": "FALSE"}
{"VARIANT_ANNOTATION": "G37A G51C", "CAT": "FALSE"}
{"VARIANT_ANNOTATION": "A33G U45C", "CAT": "FALSE"}
{"VARIANT_ANNOTATION": "A36U A53U U65A", "CAT": "FALSE"}
{"VARIANT_ANNOTATION": "A12C C71U", "CAT": "TRUE"}
{"VARIANT_ANNOTATION": "G40C A64G", "CAT": "TRUE"}
{"VARIANT_ANNOTATION": "A42G U46C", "CAT": "TRUE"}
{"VARIANT_ANNOTATION": "G26U G29A U54A C70U C71U", "CAT": "FALSE"}
{"VARIANT_ANNOTATION": "G32A G44U A53C", "CAT": "FALSE"}
{"VARIANT_ANNOTATION": "G7A A39U A48C", "CAT": "FALSE"}
{"VARIANT_ANNOTATION": "A12G G26U G38A C68G C71A", "CAT": "FALSE"}
{"VARIANT_ANNOTATION": "G41U U56A", "CAT": "FALSE"}
{"VARIANT_ANNOTATION": "G7U G41A U47G C71G", "CAT": "FALSE"}
